system: MMP-13; experiment: Western blot of MMP-13 in PMA- or IL-1β-pre-treated SW1353 cells (Example 6); type: cell-based, human; settings: PMA-pre-treated SW1353 culture medium; 0.1 μM, 48 h
MEASURE: MMP-13, Western blot, relative to Ctrl 1.00
Just the number, please, no unit after it.

CC(C)(O)[C@@H]1CC[C@](C)([C@H]2[C@@H](O)C[C@@]3(C)[C@@H]4C[C@H](O[C@@H]5O[C@H](CO)[C@@H](O)[C@H](O)[C@H]5O)[C@H]5C(C)(C)[C@@H](O[C@@H]6OC[C@@H](O)[C@H](O)[C@H]6O[C@@H]6O[C@H](CO)[C@@H](O)[C@H](O)[C@H]6O)CC[C@@]56C[C@@]46CC[C@]23C)O1 [AS6, Astragaloside VI] | 0.93

Shifting focus to the compound that follows.
Given item CC(=O)O[C@@H]1[C@@H](O)[C@H](O[C@H]2CC[C@]34C[C@]35CC[C@]3(C)[C@@H]([C@@]6(C)CC[C@@H](C(C)(C)O)O6)[C@@H](O)C[C@@]3(C)[C@@H]5C[C@H](O[C@@H]3O[C@H](CO)[C@@H](O)[C@H](O)[C@H]3O)[C@H]4C2(C)C)OC[C@H]1O [IsoAS2, Isoastragaloside II] , the value recorded as its MMP-13, Western blot, relative to Ctrl 1.00 is 0.80

* * *

tested on: Type II Collagen; assay: Western blot of Type II Collagen in pre-treated human chondrocytes (HCHs); type: cell-based; conditions: IL-1β-pre-treated HCH culture medium; compounds 0.1 μM, 48 h
Each entry below carries its recorded Type II Collagen, Western blot, relative to Ctrl 1.00.
# respond with the number and nothing more

Record excerpt, results attached:
CC(C)(O)[C@@H]1CC[C@](C)([C@H]2[C@@H](O)C[C@@]3(C)[C@@H]4C[C@H](O[C@@H]5O[C@H](CO)[C@@H](O)[C@H](O)[C@H]5O)[C@H]5C(C)(C)[C@@H](O[C@@H]6OC[C@@H](O)[C@H](O)[C@H]6O)CC[C@@]56C[C@@]46CC[C@]23C)O1 [AS4, Astragaloside IV] | 1.16
CC(C)(O)[C@@H]1CC[C@](C)([C@H]2[C@@H](O)C[C@@]3(C)[C@@H]4C[C@H](O)[C@H]5C(C)(C)[C@@H](O[C@@H]6OC[C@@H](O)[C@H](O)[C@H]6O[C@@H]6O[C@H](CO)[C@@H](O)[C@H](O)[C@H]6O)CC[C@@]56C[C@@]46CC[C@]23C)O1 [AS3, Astragaloside III] | 1.03
C[C@@H]1C[C@H]2[C@@H]3CCC4=CC(=O)C=C[C@]4(C)[C@@]3(F)[C@@H](O)C[C@]2(C)[C@@]1(O)C(=O)CO [Dex, Dexamethasone, reference compound] | 1.20

Value of Type II Collagen, Western blot, relative to Ctrl 1.00 reported for the molecule CC(C)(O)[C@@H]1CC[C@](C)([C@H]2[C@@H](O)C[C@@]3(C)[C@@H]4C[C@H](O[C@@H]5O[C@H](CO)[C@@H](O)[C@H](O)[C@H]5O)[C@H]5C(C)(C)[C@@H](O[C@@H]6OC[C@@H](O)[C@H](O)[C@H]6O[C@@H]6O[C@H](CO)[C@@H](O)[C@H](O)[C@H]6O)CC[C@@]56C[C@@]46CC[C@]23C)O1 [AS6, Astragaloside VI] is 1.34
